Listing of entries alongside the reported protein stability index.
B1: WDFY1 (parent)
chain: LLIPKEDGVITASEDRTIRVWLKR

variants of: B1; test: protein stability index of a GFP-peptide fusion (GPS, HEK-293T) (PSI 1-6); higher = more stable; conditions: c terminus: a fixed tail appended;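 note: lentivirally expressed fusions sorted by FACS into six bins by GFP to DsRed ratio, PSI derived from sequencing read proportions per bin multiplied by bin number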
// print number alone

Worked examples follow.
I3M
1.95
G8S
1.95

Next:
Data request: Name the recorded protein stability index for R24H .
Data returned: 2.03

Each recorded value in this set is attributed to the supplement of paper PMC10567573.
